Test: Biodistribution of [111In]In-radiocomplexes in healthy mice
Assay type: in vivo
Conditions: 1 h p.i.
Measurement kind: Biodistribution: Stomach (% I.D./g)

O=C([O-])CN1CCN(CC(=O)[O-])CCN(CC(=O)NCc2ccc(-c3nncnn3)cc2)CCN(CC(=O)[O-])CC1.[111In+3] [[111In]In-DOTA-Tz]: 0.09

I: O=C([O-])CN1CCN(CC(=O)[O-])CCN(CC(=O)NCCOCCOCCOCCOCCOCCOCCOCCOCCOCCOCCOCCNC(=O)CCCC(=O)NCc2ccc(-c3nncnn3)cc2)CCN(CC(=O)[O-])CC1.[111In+3] [[111In]In-DOTA-PEG-Tz]
II: O=C([O-])CN1CCN(CC(=O)[O-])CCN(C(CCC(=O)NCc2ccc(-c3nncnn3)cc2)C(=O)[O-])CCN(CC(=O)[O-])CC1.[111In+3] (stereo not shown) [[111In]In-DOTAGA-Tz]
III: O=C([O-])CN1CCN(CC(=O)[O-])CCN(C(CCC(=O)NCCOCCOCCOCCOCCOCCOCCOCCOCCOCCOCCOCCNC(=O)CCCC(=O)NCc2ccc(-c3nncnn3)cc2)C(=O)[O-])CCN(CC(=O)[O-])CC1.[111In+3] (stereo not shown) [[111In]In-DOTAGA-PEG-Tz]
Q) Returns the items ordered by Biodistribution: Stomach, from maximum to minimum. Write out the labels following the order that was asked for.
A) III, II, I
(III: 1.1 % I.D./g, II: 0.3 % I.D./g, I: 0.09 % I.D./g)
